Sourced from patent US20180030151A1

FXa assay % of FXa alone, 20 nM Ab, 10 nM TFPI reference
Molecular target: recombinant human TFPI (tissue factor pathway inhibitor) (human, UniProt P10646 29-304)
Assay: cell-based or functional assay
Hi! Could you send only the number? It should be in %, unit omitted.

| Binder | Readout value |
| --- | --- |
| clone 3024 (antibody, V domains shown) VH: EVQLVESGGGLVKPGGSLRLSCAASGFTFSSYAMSWVRQAPGKGLEWVSTITTGGSYTYYADSVQGRFTISRDNAKNSLYLQMNSLRAEDTAVYYCARQDGNFLMDYWGQGTLVTVSS VL: DVVMTQTPLSLPVTLGQPASISCKSSQSLLDSDGKTYLNWLQQRPGQSPKRLIYLVSKLDSGVPDRFTGSGSGTDFTLKISRVEAEDVGVYYCWQGTHLPFTFGQGTKVEIKR | 32.5 |
| clone 3016 (antibody, V domains shown) VH: EVQLVESGGGLVKPGGSLRLSCAASGFTFSSYAMNWVRQAPGKGLEWVSTITTGGSHTYYADSVEGRFTISRDNAKNSLYLQMNSLRAEDTAVYYCARQDGNFLMDYWGQGTLVTVSS VL: DVVMTQTPLSLPVTLGQPASISCKSSQSLLDSDGKTYLNWLQQRPGQSPKRLIYLVSKLDSGVPDRFTGSGSGTDFTLKISRVEAEDVGVYYCWQGTHLPFTFGQGTKVEIKR | 14.2 |
| clone 1021 (antibody, V domains shown) VH: EVQLVESGGGLVKPGGSLRLSCAASGFTFSSYAMNWVRQAPGKGLEWVSTITTGGSYTYYADSVDGRFTISRDNAKNSLYLQMNSLRAEDTAVYYCARQDGHFLMDYWGQGTLVTVSS VL: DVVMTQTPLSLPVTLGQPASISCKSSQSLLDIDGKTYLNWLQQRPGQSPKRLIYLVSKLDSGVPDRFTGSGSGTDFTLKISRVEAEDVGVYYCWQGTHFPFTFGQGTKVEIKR | 78.7 |

Consider the additional binder presented here.
Consider the binder clone 3007 (antibody, V domains shown) VH: EVQLVESGGGLVKPGGSLRLSCAASGFTFTSYAMNWVRQAPGKGLEWVSTITLGGSYTYYADSVQGRFTISRDNAKNSLYLQMNSLRAEDTAVYYCARQDGNFLMDYWGQGTLVTVSS VL: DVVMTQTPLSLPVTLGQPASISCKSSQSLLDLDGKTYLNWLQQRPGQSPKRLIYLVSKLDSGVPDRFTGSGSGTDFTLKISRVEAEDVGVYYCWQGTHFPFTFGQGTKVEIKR and give its recorded FXa assay % of FXa alone, 20 nM Ab, 10 nM TFPI.
3
